For each of the molecules below, state its bioavailability.
experiment.notes: Pharmacokinetics in rat
Format: in vivo, male Sprague Dawley rats
measurement.parameters: male, Sprague Dawley, whole blood, intravenous 1 mg/kg and oral 10 mg/kg, read-out: % F (% Bioavailability)

Problem: Give its bioavailability value. Item: O=C(c1csc(-c2cn[nH]c2)c1)N1C2CCC1CC(O)(c1ccccc1)C2 (stereo not drawn)
Solution: 11 to 30%

Problem: Then O=C(c1csc(-c2cn[nH]c2)c1)N1CCC(O)(c2ccc(Cl)cc2)CC1 ?
Solution: 31 to 100%

Problem: How about O=C(c1csc(-c2cn[nH]c2)c1)N1CCC(O)(c2ccccc2Cl)CC1 ?
Solution: 31 to 100%

Problem: Likewise for O=C(c1csc(-c2cn[nH]c2)c1)N1CCC(F)(c2ccccc2)CC1 ?
Solution: 31 to 100%

Problem: And the next one, O=C(c1csc(-c2cn[nH]c2)c1)N1CCC(O)(c2ccccc2)CC1 ?
Solution: 31 to 100%

Problem: Queued: O=C(c1csc(-c2cn[nH]c2)c1)N1CCC(O)(c2ccccc2F)CC1
Solution: 31 to 100%

Source listed as patent US8642621B2.
